# targetEntity: NPR-5b (Caenorhabditis elegans)
# Sequence (Q6F3C9 1-433): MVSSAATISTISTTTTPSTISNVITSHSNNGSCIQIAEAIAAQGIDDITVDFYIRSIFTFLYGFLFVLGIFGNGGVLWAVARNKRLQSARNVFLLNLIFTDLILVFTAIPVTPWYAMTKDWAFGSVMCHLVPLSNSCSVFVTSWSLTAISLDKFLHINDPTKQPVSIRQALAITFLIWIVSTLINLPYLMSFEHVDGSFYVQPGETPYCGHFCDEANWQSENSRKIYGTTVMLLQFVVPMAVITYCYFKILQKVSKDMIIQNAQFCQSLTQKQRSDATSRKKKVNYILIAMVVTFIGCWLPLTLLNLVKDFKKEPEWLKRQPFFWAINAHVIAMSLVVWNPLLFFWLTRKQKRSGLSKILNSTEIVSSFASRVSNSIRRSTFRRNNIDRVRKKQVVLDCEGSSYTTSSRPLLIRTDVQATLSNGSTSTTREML
# testProtocol: cAMP reporter gene assay, Gi/o (with forskolin), NPR-5b
# Format: cell-based, C. elegans
# conditionNotes: NPR-5b; full concentration-response curve; with 1 µM forskolin, increase of cAMP; transiently transfected HEK293 cells; at least three independent experiments
Ends that are not written are not given here.
endpoint: EC50 (µM)
// units = µM; emit number, no label

{"substance": "ADISTFASAINNAGRLRY-NH2 [FLP-34-1]", "targetEntity": "NPR-5b (Caenorhabditis elegans)", "valueUnits": "µM", "quantitativeReadout": 20.1}
{"substance": "RGPSGPLRF-NH2 [FLP-15-2]", "targetEntity": "NPR-5b (Caenorhabditis elegans)", "valueUnits": "µM", "quantitativeReadout": 6.65}

Ask: EC50 for GLGPRPLRF-NH2 [FLP-21] ?
Result: 0.432

* * *

# targetEntity: NPFF2R (Homo sapiens)
# Construct: expressed in transfected cells; host or cells: HEK293, transient
# Sequence (Q9Y5X5 103-522): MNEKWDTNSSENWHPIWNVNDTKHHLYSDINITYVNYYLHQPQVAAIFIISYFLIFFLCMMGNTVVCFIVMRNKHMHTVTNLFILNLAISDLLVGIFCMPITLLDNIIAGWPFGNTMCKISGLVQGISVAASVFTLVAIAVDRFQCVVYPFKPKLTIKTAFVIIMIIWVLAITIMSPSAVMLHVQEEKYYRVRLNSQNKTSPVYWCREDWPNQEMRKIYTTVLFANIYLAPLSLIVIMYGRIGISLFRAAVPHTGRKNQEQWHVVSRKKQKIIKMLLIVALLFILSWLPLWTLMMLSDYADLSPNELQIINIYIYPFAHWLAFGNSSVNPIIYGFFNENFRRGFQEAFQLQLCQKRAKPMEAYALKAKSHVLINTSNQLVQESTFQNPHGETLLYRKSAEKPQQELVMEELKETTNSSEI
# testProtocol: IP accumulation assay, chimeric GαΔ6qi4myr, NPFF2R
# Format: cell-based
# conditionNotes: 0.1 µM peptide; chimeric GαΔ6qi4myr co-transfected; transiently transfected HEK293 cells; mean of at least three independent experiments
In this section we review reported IP accumulation, x-fold of basal (mean), NPFF2R values for a set of substances.

{"substance": "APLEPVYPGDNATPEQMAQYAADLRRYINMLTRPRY-NH2 [PP, human pancreatic polypeptide, reference compound]", "result": "0.95 x-fold of basal"}
{"substance": "TSGPLGNLAEELNGYSRKKGGFSFRF-NH2 [QRFP26, human pyroglutamylated RFamide peptide, 26 residues, reference compound]", "result": "1.85 x-fold of basal"}
{"substance": "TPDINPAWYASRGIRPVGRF-NH2 [PrRP20, human prolactin-releasing peptide, 20 residues, reference compound]", "result": "1.75 x-fold of basal"}
{"substance": "AGSDPNFLRF-NH2 [FLP-1-2, C. elegans FMRFamide-like peptide, C-terminally amidated, synthesized by SPPS]", "result": "1.10 x-fold of basal"}
{"substance": "APKPKFIRF-NH2 [FLP-5-1, C. elegans FMRFamide-like peptide, C-terminally amidated, synthesized by SPPS]", "result": "0.88 x-fold of basal"}
{"substance": "ASPSFIRF-NH2 [FLP-4-2, C. elegans FMRFamide-like peptide, C-terminally amidated, synthesized by SPPS]", "result": "1.07 x-fold of basal"}

Ask: Field request: IP accumulation, x-fold of basal (mean), NPFF2R | item: NPENDTPFGTMRF-NH2 [FLP-3-4, C. elegans FMRFamide-like peptide, C-terminally amidated, synthesized by SPPS]
Result: 1.58 x-fold of basal

* * *

# targetEntity: Y1R (Homo sapiens)
# Construct: expressed in transfected cells; host or cells: HEK293, transient
# Sequence (P25929 whole entry): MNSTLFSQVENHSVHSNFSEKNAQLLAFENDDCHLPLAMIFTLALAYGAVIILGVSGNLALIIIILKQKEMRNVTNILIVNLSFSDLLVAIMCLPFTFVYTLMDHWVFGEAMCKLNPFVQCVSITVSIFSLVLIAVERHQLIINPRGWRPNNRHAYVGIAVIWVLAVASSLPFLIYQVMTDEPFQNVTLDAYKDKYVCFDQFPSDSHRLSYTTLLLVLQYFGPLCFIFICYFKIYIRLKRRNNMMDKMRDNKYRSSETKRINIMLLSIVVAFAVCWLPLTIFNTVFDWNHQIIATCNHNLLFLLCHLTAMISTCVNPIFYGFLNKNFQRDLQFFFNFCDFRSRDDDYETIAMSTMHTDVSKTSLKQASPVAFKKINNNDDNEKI
# testProtocol: IP accumulation assay, chimeric GαΔ6qi4myr, Y1R
# Type: cell-based
# conditionNotes: 10 µM peptide; chimeric GαΔ6qi4myr co-transfected; transiently transfected HEK293 cells; mean of at least three independent experiments
endpoint: IP accumulation, x-fold of basal (mean), Y1R

{"substance": "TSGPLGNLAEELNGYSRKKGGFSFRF-NH2 [QRFP26, human pyroglutamylated RFamide peptide, 26 residues, reference compound]", "targetEntity": "Y1R (Homo sapiens)", "result": "2.75 x-fold of basal"}
{"substance": "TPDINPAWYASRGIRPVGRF-NH2 [PrRP20, human prolactin-releasing peptide, 20 residues, reference compound]", "targetEntity": "Y1R (Homo sapiens)", "result": "2.68 x-fold of basal"}

Then this substance:
Ask: Quick one: IP accumulation, x-fold of basal (mean), Y1R of APKPKFIRF-NH2 [FLP-5-1, C. elegans FMRFamide-like peptide, C-terminally amidated, synthesized by SPPS] ?
Result: 1.69 x-fold of basal

* * *

Catalogue of substances with associated cAMP, x-fold of forskolin (mean), NPR-5b
# targetEntity: NPR-5b (Caenorhabditis elegans, UniProt Q6F3C9)
# testProtocol: cAMP reporter gene assay, Gi/o (with forskolin), NPR-5b
# Type: cell-based, C. elegans
# conditionNotes: 10 µM peptide; 1 µM forskolin set to 1.00; values > 1 = cAMP stimulation; transiently transfected HEK293 cells; mean of at least three independent experiments

{"substance": "NPENDTPFGTMRF-NH2 [FLP-3-4, C. elegans FMRFamide-like peptide, C-terminally amidated, synthesized by SPPS]", "targetEntity": "NPR-5b (Caenorhabditis elegans, UniProt Q6F3C9)", "result": "3.95 x-fold of forskolin"}
{"substance": "ASPSFIRF-NH2 [FLP-4-2, C. elegans FMRFamide-like peptide, C-terminally amidated, synthesized by SPPS]", "targetEntity": "NPR-5b (Caenorhabditis elegans, UniProt Q6F3C9)", "result": "1.82 x-fold of forskolin"}

Ask: For the substance shown here, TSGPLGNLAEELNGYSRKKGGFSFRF-NH2 [QRFP26, human pyroglutamylated RFamide peptide, 26 residues, reference compound] , give the reported cAMP, x-fold of forskolin (mean), NPR-5b.
Result: 2.19 x-fold of forskolin

* * *

# targetEntity: PrRPR (Homo sapiens)
# Construct: expressed in transfected cells; host or cells: HEK293, transient
# Sequence (P49683 whole entry): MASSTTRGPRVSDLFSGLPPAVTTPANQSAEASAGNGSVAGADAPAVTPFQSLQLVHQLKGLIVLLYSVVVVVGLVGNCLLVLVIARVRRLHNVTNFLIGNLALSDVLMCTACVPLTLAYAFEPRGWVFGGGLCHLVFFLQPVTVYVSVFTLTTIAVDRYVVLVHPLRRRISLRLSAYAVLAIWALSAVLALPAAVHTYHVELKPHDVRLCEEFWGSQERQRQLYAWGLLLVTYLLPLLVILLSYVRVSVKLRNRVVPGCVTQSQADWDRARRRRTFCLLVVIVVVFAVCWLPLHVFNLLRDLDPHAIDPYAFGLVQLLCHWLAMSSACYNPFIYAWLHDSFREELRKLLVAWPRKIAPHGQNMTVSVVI
# testProtocol: IP accumulation assay, endogenous Gαq coupling, PrRPR
# Type: cell-based
# conditionNotes: 10 µM peptide, transiently transfected HEK293 cells, mean of at least three independent experiments
Measured IP accumulation, x-fold of basal (mean), PrRPR# values are reported for all entries that follow.

These solved cases illustrate the format of a correct answer.
{"substance": "NPENDTPFGTMRF-NH2 [FLP-3-4, C. elegans FMRFamide-like peptide, C-terminally amidated, synthesized by SPPS]", "result": "0.96 x-fold of basal"}
{"substance": "EASAFGDIIGELKGKGLGGRMRF-NH2 [FLP-27, NPY-like C. elegans FLP with C-terminal RxRF/Ya signature]", "result": "0.91 x-fold of basal"}
{"substance": "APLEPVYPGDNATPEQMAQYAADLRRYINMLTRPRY-NH2 [PP, human pancreatic polypeptide, reference compound]", "result": "1.01 x-fold of basal"}
{"substance": "APLEGFEDMSGFLRTIDGIQKPRF-NH2 [FLP-33, NPY-like C. elegans FLP with C-terminal RxRF/Ya signature]", "result": "0.88 x-fold of basal"}

# ---- query substance ----
Ask: Could you tell me which IP accumulation, x-fold of basal (mean), PrRPR# is on file for ASPSFIRF-NH2 [FLP-4-2, C. elegans FMRFamide-like peptide, C-terminally amidated, synthesized by SPPS] ?
Result: 0.86 x-fold of basal

* * *

# targetEntity: NPR-3 (Caenorhabditis elegans, UniProt P90745)
# Construct: expressed in transfected cells; host or cells: HEK293
# Sequence (P90745 1-376): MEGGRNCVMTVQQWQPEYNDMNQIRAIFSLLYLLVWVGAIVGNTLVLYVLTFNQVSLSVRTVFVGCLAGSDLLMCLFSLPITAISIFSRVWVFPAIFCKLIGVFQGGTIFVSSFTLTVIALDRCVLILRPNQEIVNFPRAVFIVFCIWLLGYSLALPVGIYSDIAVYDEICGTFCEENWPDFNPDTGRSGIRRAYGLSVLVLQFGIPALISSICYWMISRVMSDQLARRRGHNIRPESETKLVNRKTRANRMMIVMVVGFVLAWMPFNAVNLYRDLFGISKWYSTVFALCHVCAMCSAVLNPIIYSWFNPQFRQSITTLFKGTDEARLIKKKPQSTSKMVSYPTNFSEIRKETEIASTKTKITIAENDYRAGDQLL
# testProtocol: cAMP reporter gene assay, Gi/o (inhibition of forskolin-induced cAMP), NPR-3
# Assay type: cell-based, C. elegans
# conditionNotes: 10 µM peptide; 1 µM forskolin set to 1.00; transiently transfected HEK293 cells; mean of at least three independent experiments
endpoint: cAMP, x-fold of forskolin (mean), NPR-3

Recorded cAMP, x-fold of forskolin (mean), NPR-3, per entry:
{"substance": "EASAFGDIIGELKGKGLGGRMRF-NH2 [FLP-27, NPY-like C. elegans FLP with C-terminal RxRF/Ya signature]", "result": "1.15 x-fold of forskolin"}
{"substance": "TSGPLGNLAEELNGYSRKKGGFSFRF-NH2 [QRFP26, human pyroglutamylated RFamide peptide, 26 residues, reference compound]", "result": "0.97 x-fold of forskolin"}
{"substance": "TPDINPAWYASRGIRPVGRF-NH2 [PrRP20, human prolactin-releasing peptide, 20 residues, reference compound]", "result": "1.23 x-fold of forskolin"}

// next item, cAMP, x-fold of forskolin (mean), NPR-3 requested
Ask: Lab note: need cAMP, x-fold of forskolin (mean), NPR-3 for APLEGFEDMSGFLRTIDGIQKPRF-NH2 [FLP-33, NPY-like C. elegans FLP with C-terminal RxRF/Ya signature] on NPR-3 (Caenorhabditis elegans, UniProt P90745), anyone have it?
Result: 0.85 x-fold of forskolin

These entries and their values trace back to paper PMC6751662.
